ASSAY_TEXT: Cytotoxicity against human U87MG cells after 72 hrs by MTT assay
Format: functional, cell-based, U-87MG ATCC
CONDITION_LABEL: U-87 MG
pIC50: −log10 of the molar value.
If the reported pIC50 equals or exceeds 6, assign yes. If not, assign no.

Past entries and their recorded results:
{"columns": ["SMILES_INPUT", "LABEL_CLASS"],
 "data": [
  ["COc1cc2c(Oc3ccc(NC(=O)c4cc(-c5cccc(Cl)c5)nc5ccc(F)cc45)cc3F)ccnc2cc1OCCCN1CCC(C)CC1", "yes"],
  ["COc1cccc(-c2cc(C(=O)Nc3ccc(Oc4ccnc5cc(OCCCN6CCCCC6)c(OC)cc45)c(F)c3)c3cc(F)ccc3n2)c1", "no"],
  ["COc1cc2c(Oc3ccc(NC(=O)c4cc(-c5ccc(F)cc5)nc5ccc(F)cc45)cc3F)ccnc2cc1OCCCN1CCOCC1", "no"]
]}

# ---- query compound ----
Hi team, for `COc1cc2c(Oc3ccc(NC(=O)c4cc(-c5cccc(Cl)c5)nc5ccccc45)cc3F)ccnc2cc1OCCCN1CCC(C)CC1` , is the recorded pIC50 at or above 6? yes

----------
Reported log10 IC50 values for a set of compounds
ASSAY_TEXT: Cytotoxicity against human U87MG cells after 72 hrs by MTT assay
Format: functional, cell-based, U-87MG ATCC
CONDITION_LABEL: U-87 MG
log10 IC50, nM

Study these solved cases before continuing.
{"columns": ["SMILES_INPUT", "log10 IC50"],
 "data": [
  ["COc1cc2c(Oc3ccc(NC(=O)c4cc(-c5ccccc5)nc5ccccc45)cc3F)ccnc2cc1OCCCN1CCC(C)CC1", 2.96],
  ["COc1cccc(-c2cc(C(=O)Nc3ccc(Oc4ccnc5cc(OCCCN6CCC(C)CC6)c(OC)cc45)c(F)c3)c3cc(F)ccc3n2)c1", 2.92],
  ["COc1cc2c(Oc3ccc(NC(=O)c4cc(-c5ccc(C)cc5)nc5ccc(F)cc45)cc3F)ccnc2cc1OCCCN1CCOCC1", 2.91],
  ["COc1ccc(-c2cc(C(=O)Nc3ccc(Oc4ccnc5cc(OCCCN6CCCCC6)c(OC)cc45)c(F)c3)c3ccccc3n2)cc1", 3.13],
  ["COc1cc2c(Oc3ccc(NC(=O)c4cc(-c5ccc(C)cc5)nc5ccc(F)cc45)cc3F)ccnc2cc1OCCCN1CCCCC1", 3.02]
]}

Per the record, `COc1cc2c(Oc3ccc(NC(=O)c4cc(-c5ccc(C)cc5)nc5ccc(F)cc45)cc3F)ccnc2cc1OCCCN1CCC(C)CC1` has log10 IC50 of 3.30

Per the record, `COc1cc2c(Oc3ccc(NC(=O)c4cc(-c5cccc(Cl)c5)nc5ccccc45)cc3F)ccnc2cc1OCCCN1CCCCC1` has log10 IC50 of 2.18

Per the record, `COc1cc2c(Oc3ccc(NC(=O)c4cc(-c5ccccc5)nc5ccccc45)cc3F)ccnc2cc1OCCCN1CCOCC1` has log10 IC50 of 3.06

----------
Test system: MKN-45
ASSAY_TEXT: Cytotoxicity against human MKN45 cells after 72 hrs by MTT assay
CONDITION_LABEL: MKN-45, 72 h
OBSERVATION_TYPE: pIC50
pIC50 here: minus log base 10 of the concentration, concentration in moles per litre.

Study these solved cases before continuing.
{"columns": ["SMILES_INPUT", "TEST_SYSTEM", "pIC50"],
 "data": [
  ["COc1ccc(-c2cc(C(=O)Nc3ccc(Oc4ccnc5cc(OCCCN6CCC(C)CC6)c(OC)cc45)c(F)c3)c3ccccc3n2)cc1", "MKN-45", 6.49],
  ["COc1cc2c(Oc3ccc(NC(=O)c4cc(-c5ccc(F)cc5)nc5ccc(F)cc45)cc3F)ccnc2cc1OCCCN1CCOCC1", "MKN-45", 7.29]
]}

Per the record, `COc1cc2c(Oc3ccc(NC(=O)c4cc(-c5cccc(Cl)c5)nc5ccc(F)cc45)cc3F)ccnc2cc1OCCCN1CCOCC1` has pIC50 of 7.22

Per the record, `COc1cc2c(Oc3ccc(NC(=O)c4cc(-c5ccccc5)nc5ccccc45)cc3F)ccnc2cc1OCCCN1CCC(C)CC1` has pIC50 of 7.72

Per the record, `COc1cc2c(Oc3ccc(NC(=O)c4cc(-c5cccc(Cl)c5)nc5ccccc45)cc3F)ccnc2cc1OCCCN1CCOCC1` has pIC50 of 7.46

Per the record, `COc1cccc(-c2cc(C(=O)Nc3ccc(Oc4ccnc5cc(OCCCN6CCOCC6)c(OC)cc45)c(F)c3)c3ccccc3n2)c1` has pIC50 of 6.96

Per the record, `COc1cc2c(Oc3ccc(NC(=O)c4cc(-c5ccc(C)cc5)nc5ccc(F)cc45)cc3F)ccnc2cc1OCCCN1CCOCC1` has pIC50 of 6.49

Per the record, `COc1cc2c(Oc3ccc(NC(=O)c4cc(-c5ccc(Cl)c(Cl)c5)nc5ccccc45)cc3F)ccnc2cc1OCCCN1CCCCC1` has pIC50 of 6.14

Per the record, `COc1cc2c(Oc3ccc(NC(=O)c4cc(-c5ccc(Cl)c(Cl)c5)nc5ccccc45)cc3F)ccnc2cc1OCCCN1CCCC1` has pIC50 of 6.77

Per the record, `COc1cc2c(Oc3ccc(NC(=O)c4cc(-c5ccccc5)nc5ccccc45)cc3F)ccnc2cc1OCCCN1CCOCC1` has pIC50 of 7.04

Per the record, `COc1cc2c(Oc3ccc(NC(=O)c4cc(-c5ccc(F)cc5)nc5ccccc45)cc3F)ccnc2cc1OCCCN1CCCCC1` has pIC50 of 7.55

Per the record, `COc1cccc(-c2cc(C(=O)Nc3ccc(Oc4ccnc5cc(OCCCN6CCCC6)c(OC)cc45)c(F)c3)c3ccccc3n2)c1` has pIC50 of 6.37

Per the record, `COc1cc2c(Oc3ccc(NC(=O)c4cc(-c5cccc(Cl)c5)nc5ccc(F)cc45)cc3F)ccnc2cc1OCCCN1CCCC1` has pIC50 of 7.17

Per the record, `COc1cccc(-c2cc(C(=O)Nc3ccc(Oc4ccnc5cc(OCCCN6CCCCC6)c(OC)cc45)c(F)c3)c3cc(F)ccc3n2)c1` has pIC50 of 6.16

----------
ASSAY_TEXT: Cytotoxicity against human U87MG cells after 72 hrs by MTT assay
Type: functional, cell-based, U-87MG ATCC
CONDITION_LABEL: U-87 MG
OBSERVATION_TYPE: pIC50
pIC50 here: minus log base 10 of the concentration, concentration in moles per litre.

Study these solved cases before continuing.
{"columns": ["SMILES_INPUT", "pIC50"],
 "data": [
  ["COc1cc2c(Oc3ccc(NC(=O)c4cc(-c5ccc(C(F)(F)F)cc5)nc5ccccc45)cc3F)ccnc2cc1OCCCN1CCOCC1", 6.00],
  ["COc1cc2c(Oc3ccc(NC(=O)c4cc(-c5cccc(Cl)c5)nc5ccc(F)cc45)cc3F)ccnc2cc1OCCCN1CCOCC1", 5.97],
  ["COc1ccc(-c2cc(C(=O)Nc3ccc(Oc4ccnc5cc(OCCCN6CCCC6)c(OC)cc45)c(F)c3)c3cc(F)ccc3n2)cc1", 6.03],
  ["COc1ccc(-c2cc(C(=O)Nc3ccc(Oc4ccnc5cc(OCCCN6CCCCC6)c(OC)cc45)c(F)c3)c3cc(F)ccc3n2)cc1", 5.96]
]}

Lab note: next compound to report on.
Per the record, `COc1cc2c(Oc3ccc(NC(=O)c4cc(-c5ccccc5)nc5ccc(F)cc45)cc3F)ccnc2cc1OCCCN1CCCC1` has pIC50 of 6.02

----------
Reported IC50 values for a set of compounds
Test system: MKN-45
ASSAY_TEXT: Cytotoxicity against human MKN45 cells after 72 hrs by MTT assay
CONDITION_LABEL: MKN-45, 72 h
Number first, unit second: that is the form wanted.

Per the record, `COc1cc2c(Oc3ccc(NC(=O)c4cc(-c5ccccc5)nc5ccccc45)cc3F)ccnc2cc1OCCCN1CCCCC1` has IC50 of 0.015 µM

Per the record, `COc1cc2c(Oc3ccc(NC(=O)c4cc(-c5ccc(C)cc5)nc5ccccc45)cc3F)ccnc2cc1OCCCN1CCC(C)CC1` has IC50 of 0.77 µM

Per the record, `COc1ccc(-c2cc(C(=O)Nc3ccc(Oc4ccnc5cc(OCCCN6CCCCC6)c(OC)cc45)c(F)c3)c3ccccc3n2)cc1` has IC50 of 0.21 µM

Per the record, `COc1cc2c(Oc3ccc(NC(=O)c4cc(-c5ccccc5)nc5ccc(F)cc45)cc3F)ccnc2cc1OCCCN1CCCCC1` has IC50 of 0.03 µM

----------
ASSAY_TEXT: Cytotoxicity against human U87MG cells after 72 hrs by MTT assay
Format: functional, cell-based, U-87MG ATCC
CONDITION_LABEL: U-87 MG
Reported IC50 values for a set of compounds
# output: bare number, implied unit nM

Study these solved cases before continuing.
{"columns": ["SMILES_INPUT", "OUTPUT_UNIT", "IC50"],
 "data": [
  ["COc1cc2c(Oc3ccc(NC(=O)c4cc(-c5ccccc5)nc5ccccc45)cc3F)ccnc2cc1OCCCN1CCCCC1", "nM", 1490],
  ["COc1cc2c(Oc3ccc(NC(=O)c4cc(-c5ccc(F)cc5)nc5ccccc45)cc3F)ccnc2cc1OCCCN1CCCCC1", "nM", 980],
  ["COc1cc2c(Oc3ccc(NC(=O)c4cc(-c5cccc(Cl)c5)nc5ccccc45)cc3F)ccnc2cc1OCCCN1CCOCC1", "nM", 1470]
]}

Per the record, `COc1cc2c(Oc3ccc(NC(=O)c4cc(-c5ccc(Cl)cc5Cl)nc5ccc(F)cc45)cc3F)ccnc2cc1OCCCN1CCCCC1` has IC50 of 1040

Per the record, `COc1cc2c(Oc3ccc(NC(=O)c4cc(-c5cccc(Cl)c5)nc5ccc(F)cc45)cc3F)ccnc2cc1OCCCN1CCCC1` has IC50 of 990

Per the record, `COc1cc2c(Oc3ccc(NC(=O)c4cc(-c5ccccc5)nc5ccc(F)cc45)cc3F)ccnc2cc1OCCCN1CCCCC1` has IC50 of 690
